Target: SV2A (Macaca mulatta)
Sequence (H9EQH8 1-742): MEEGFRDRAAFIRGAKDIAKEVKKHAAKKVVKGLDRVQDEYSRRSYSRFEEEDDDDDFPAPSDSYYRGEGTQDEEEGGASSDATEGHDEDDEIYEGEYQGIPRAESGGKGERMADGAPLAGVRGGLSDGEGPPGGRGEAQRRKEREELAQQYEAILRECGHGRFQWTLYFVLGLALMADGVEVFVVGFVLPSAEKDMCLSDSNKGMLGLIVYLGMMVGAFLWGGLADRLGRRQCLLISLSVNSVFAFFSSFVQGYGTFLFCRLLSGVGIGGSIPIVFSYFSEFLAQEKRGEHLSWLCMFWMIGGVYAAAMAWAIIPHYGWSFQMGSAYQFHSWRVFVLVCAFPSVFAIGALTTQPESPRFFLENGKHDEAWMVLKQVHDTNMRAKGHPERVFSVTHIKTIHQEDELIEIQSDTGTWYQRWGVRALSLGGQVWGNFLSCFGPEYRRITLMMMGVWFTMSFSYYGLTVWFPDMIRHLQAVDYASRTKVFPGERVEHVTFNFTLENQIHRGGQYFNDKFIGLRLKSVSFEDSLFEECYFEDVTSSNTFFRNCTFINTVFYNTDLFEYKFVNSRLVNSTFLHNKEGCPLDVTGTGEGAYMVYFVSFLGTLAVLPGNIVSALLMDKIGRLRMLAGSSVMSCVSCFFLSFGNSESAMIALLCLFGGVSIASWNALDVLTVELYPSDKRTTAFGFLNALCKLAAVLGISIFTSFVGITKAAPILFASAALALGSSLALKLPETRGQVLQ
Test: PET imaging studies in rhesus monkeys
Conditions: Cingulate cortex; from VT, centrum semiovale as reference region
property-label: Binding potential (BPND)
I only need the number, thanks.

Illustrative cases are given below, each with its answer.
                                   molecule  quantitative_result
0  O=C1CC(c2cc(F)c(F)c(F)c2)CN1Cc1ccncc1F (stereo not shown) [^18F-10]                 0.59
1  Cc1cnccc1CN1CC(c2cccc(F)c2)CC1=O (stereo not shown) [^18F-11]                 3.49
2  Cc1cnccc1CN1CC(c2cc(F)c(F)c(F)c2)CC1=O (stereo not shown) [^18F-3]                 4.04
3  O=C1CC(c2cccc(F)c2)CN1Cc1ccncc1 (stereo not shown) [^18F-12]                 1.45
4  Cc1cnccc1CN1CC(c2cc(F)c(F)c(F)c2)CC1=O (single isomer, unassigned) [^11C-3]                 3.17
5  Cc1cnccc1CN1CC(c2cc(F)cc(F)c2)CC1=O (stereo not shown) [^18F-5]                 4.49

Now take the following molecule into account.
Response field Binding potential (BPND) (SV2A (Macaca mulatta)) for item Cc1cnccc1CN1CC(c2ccc(F)c(F)c2)CC1=O (stereo not shown) [^18F-4] : 2.60

* * *

Target: UniProt H9EQH8
Test: PET imaging studies in rhesus monkeys
Conditions: Putamen; from VT, centrum semiovale as reference region
# label = 1 (yes) if Binding potential (BPND) < 2 else 0 (no)

Use these answered entries as a reference point.
In [3]: df
Out[3]:
                                   molecule     test_system  answer_label
0  O=C1CC(c2cc(F)c(F)c(F)c2)CN1Cc1ccncc1F (stereo not shown) [^18F-10]  UniProt H9EQH8       1 (yes)
1  Cc1cnccc1CN1CC(c2ccc(F)c(F)c2)CC1=O (stereo not shown) [^18F-4]  UniProt H9EQH8       1 (yes)
2  Cc1cnccc1CN1CC(c2cccc(F)c2)CC1=O (stereo not shown) [^18F-11]  UniProt H9EQH8        0 (no)

Query string: Report whether reported Binding potential (BPND) is lower than 2 (strictly) for Cc1cnccc1CN1CC(c2cc(F)c(F)c(F)c2)CC1=O (single isomer, unassigned) [^11C-3]
Result string: 0 (no)

Query string: Determine whether this molecule shows Binding potential (BPND) lower than 2 (ties excluded): O=C1CC(c2cccc(F)c2)CN1Cc1ccncc1 (stereo not shown) [^18F-12]
Result string: 1 (yes)

Query string: Below 2 on Binding potential (BPND)? Entry Cc1cnccc1CN1CC(c2cc(F)cc(F)c2)CC1=O (stereo not shown) [^18F-5]
Result string: 0 (no)

Query string: Regarding Cc1cnccc1CN1CC(c2cc(F)c(F)c(F)c2)CC1=O (stereo not shown) [^18F-3] , kindly confirm whether its Binding potential (BPND) is beneath 2.
Result string: 0 (no)

* * *

Biological target: SV2A (Macaca mulatta)
Assay: PET imaging studies in rhesus monkeys
Details: Hippocampus; from VT, centrum semiovale as reference region
property-label: Binding potential (BPND)
The reply should be a number, written without any unit.

Sample records with Binding potential (BPND):
>>> df
                                   molecule            property_label  quantitative_result
0  Cc1cnccc1CN1CC(c2cc(F)c(F)c(F)c2)CC1=O (stereo not shown) [^18F-3]  Binding potential (BPND)                 1.99
1  Cc1cnccc1CN1CC(c2ccc(F)c(F)c2)CC1=O (stereo not shown) [^18F-4]  Binding potential (BPND)                 1.35

Record O=C1CC(c2cc(F)c(F)c(F)c2)CN1Cc1ccncc1F (stereo not shown) [^18F-10] , field Binding potential (BPND): 0.12

The molecule O=C1CC(c2cccc(F)c2)CN1Cc1ccncc1 (stereo not shown) [^18F-12] showed Binding potential (BPND) equal to 0.44

get_value(item= Cc1cnccc1CN1CC(c2cc(F)cc(F)c2)CC1=O (stereo not shown) [^18F-5] , readout=Binding potential (BPND)) returns 2.36

// Cc1cnccc1CN1CC(c2cc(F)c(F)c(F)c2)CC1=O (single isomer, unassigned) [^11C-3] : Binding potential (BPND) value = 1.59

Sure, the documented Binding potential (BPND) for Cc1cnccc1CN1CC(c2cccc(F)c2)CC1=O (stereo not shown) [^18F-11] is 1.58
